tested on: MDA-MB-231 (breast); assay: Proliferation EC50 on SISgel vs monolayer; type: cell-based; conditions: Homo sapiens; MDA-MB-231 monolayer; n = 6-8; read-out: EC50 Monolayer
Recorded Metric: pEC50
Note on units: pEC50 is unitless, being -log10 of a concentration expressed in mol/L.

Q. Please look up its pEC50: COc1cccc2c1C(=O)c1c(O)c3c(c(O)c1C2=O)C[C@@](O)(C(=O)CO)C[C@@H]3O[C@H]1C[C@H](N)[C@H](O)[C@H](C)O1 [Doxorubicin, reference compound]
A. 4.34

---

Test system: Capan-1 (pancreatic)
Test: Proliferation EC50 on SISgel vs monolayer
Format: cell-based
Conditions: Homo sapiens; Capan-1 monolayer; n = 6-8; read-out: EC50 Monolayer
Experimental: The libraries were obtained from the NCI (Diversity Library I) comprised of 2,918 compounds and a 10,000 compound diversity library from ChemBridge, Inc. (DiverSet-EXP). […] Efficacy in vitro was assessed by plating 30,000 cells in 50 μL of high glucose DMEM with penicillin-streptomycin and 10 % fetal calf serum on SISgel in a 96-well plate containing 50 μL of gelled SISgel per well. […] Data were analyzed using nonlinear regression to a sigmoid curve with Prism 4 (GraphPad Software, Inc., LaJolla, CA). […]
Recorded Metric: pEC50
Give only the number. pEC50 is defined as minus log10 of concentration in molar units.

Q. Which value of pEC50 has been reported for Nc1ccn([C@@H]2O[C@H](CO)[C@@H](O)C2(F)F)c(=O)n1 [gemcitabine, reference compound] in the records?
A. 4.11
